# System: SEM cells
# ASSAY: cell viability relative to DMSO control; higher = less cytotoxic
# STUDY CONDITIONS: RPMI 5 mM glucose + 10% dialyzed FBS; 48 h; 0.00702 µM
cell viability strictly under 90% means true; at 90% or over means false.

Incoming: cell viability strictly < 90% for this compound? C=CC(=O)Nc1cccc(Oc2nc(Nc3ccc(N4CCN(C)CC4)cc3)ncc2Cl)c1
Outgoing: false

====

# Tested on: NOMO1
# ASSAY: cell viability relative to DMSO control; higher = less cytotoxic
# STUDY CONDITIONS: RPMI 5 mM glucose + 10% FBS; 48 h; 0.00234 µM
OBSERVABLE: cell viability (%)
Lab book: enter the figure in %, no units written.

Solved cases (3 shown):
CC(C)n1nc(-c2cc3cc(O)ccc3[nH]2)c2c(N)ncnc21 :: 113
CC(=O)N(C)c1cccc(-c2ccnc3c(C(=O)c4cccs4)cnn23)c1 :: 104
CCc1cncnc1N1CCN(Cc2nc3cc(C(F)(F)F)ccc3[nH]2)CC1 :: 87.8

Alright, here's another compound for you.
Incoming: Any idea what cell viability was measured for COC1=CC2=NC=CC(=C2C=C1)OC3=CN=C(NC(=O)C/4=C(C)/N(CC(C)(C)O)N(C4=O)C5=CC=CC=C5)C=C3 ?
Outgoing: 92

====

# System: SEM cells
# ASSAY: cell viability relative to DMSO control; higher = less cytotoxic
# STUDY CONDITIONS: HPLM + 10% dialyzed FBS; 48 h; 5.12 µM
OBSERVABLE: cell viability (%)
Lab book: enter the figure in %, no units written.

CNC(=O)c1ccc(-c2cnc3ncc(Cc4ccc5ncccc5c4)n3n2)cc1F :: 120
C[C@]12CC[C@@H]3c4ccc(OC(=O)N(CCCl)CCCl)cc4CC[C@H]3[C@@H]1CC[C@@H]2OP(=O)([O-])[O-].[Na+].[Na+] :: 66.8
COC(=O)Nc1nc2cc(C(=O)c3cccs3)ccc2[nH]1 :: 25.8
Cc1c(CCOc2ccc(C(=O)O)cc2)c2cc(Cl)ccc2n1C(c1ccccc1)c1ccccc1 :: 105
CC(=O)Oc1ccccc1C(=O)O :: 88.2
COc1cc2nc(N(C)CCCNC(=O)C3CCCO3)nc(N)c2cc1OC (stereo unspecified) :: 74.2
COC1=NC(=NC(=C1N\C2=N\CCN2)Cl)C :: 44.4
CC1=NN(c2ccc(C)c(C)c2)C(=O)/C1=N/Nc1cccc(-c2cccc(C(=O)O)c2)c1O :: 109
Cc1c(CN2CCN(C(=O)[C@H](C)O)CC2)sc2c(N3CCOCC3)nc(-c3cnc(N)nc3)nc12 :: 35.8
O=C(OC)[C@]12CC[C@@]3(C)[C@]4(C)CC[C@H]5[C@@](C)(C)C(=O)C(=C[C@]5(C)C4=CC(=O)[C@@H]3[C@@H]2C[C@](C)(C)CC1)C#N :: 81

Alright, here's another compound for you.
Incoming: # query: cell viability | item Cl.Cl.Cl.O[C@@H](COc1cccc2ncccc12)CN1CCN([C@@H]2c3ccccc3[C@@H]3[C@H](c4ccccc42)C3(F)F)CC1 | system: SEM cells
Outgoing: 91.9

====

Each entry below carries its reported cell viability.
# Tested on: NOMO1
# ASSAY: cell viability relative to DMSO control; higher = less cytotoxic
# STUDY CONDITIONS: RPMI 5 mM glucose + 10% dialyzed FBS; 48 h; 1.71 µM
Lab book: enter the figure in %, no units written.

O=C(NOCC(O)CO)c1cc(Br)c(F)c(F)c1Nc1ccc(I)cc1F (stereo not drawn) :: 30.3
CN(c1ncccc1CNc1nc(Nc2ccc3c(c2)CC(=O)N3)ncc1C(F)(F)F)[S+](C)(=O)[O-] :: 104
CCc1cncnc1N1CCN(Cc2nc3cc(C(F)(F)F)ccc3[nH]2)CC1 :: 97.4
CN[S+](=O)([O-])Cc1ccc2[nH]cc(CCN(C)C)c2c1 :: 120
COc1ccc(CC2NCCc3cc(OC)c(OC)cc32)cc1OC (stereo not drawn) :: 91

Incoming: # query: cell viability | item CC(=O)N(C)c1cccc(-c2ccnc3c(C(=O)c4cccs4)cnn23)c1 | system: NOMO1
Outgoing: 87.2

Incoming: # query: cell viability | item CC[C@H](CC[C@@H](C)[C@H]1CC[C@H]2[C@@H]3C\C=C/4C[C@@H](O)CC[C@]4(C)[C@H]3CC[C@]12C)C(C)C | system: NOMO1
Outgoing: 102

Incoming: # query: cell viability | item CC(C)OC(=O)OCOP(=O)(CO[C@H](C)Cn1cnc2c(N)ncnc21)OCOC(=O)OC(C)C.O=C(O)C=CC(=O)O | system: NOMO1
Outgoing: 124

Entry source: the supplement of paper PMC11451515
